Test system: SF-539
experimentSummary: NCI tumour cell line growth inhibition, 48 h
Active and inactive are the calls of the source. No stated cut-off is given here; in the data, active = GI50 up to about 1.1 µM and inactive = higher.
Reported GI50 values for the following compounds.

compound	experimentalEndpoint	measuredValue
COc1cc2ccc1OCc1cccc(n1)COc1ccc(cc1OC)/C=N\CCNCC/N=C\2	GI50	> 100 µM (inactive)
O=C1/C(=C/c2ccc3c(c2)OCO3)SC2C=Nc3ccccc3N12 (stereo not given)	GI50	86.1 µM (inactive)
COC(=O)C(CCC#N)(CCC#N)C(=O)OC	GI50	> 100 µM (inactive)
CC#CS(=O)(=O)c1ccccc1	GI50	4.08 µM (inactive)
OC(c1ccccc1)(c1cccnc1)C(O)(c1ccccc1)c1cccnc1 (stereo not given)	GI50	> 100 µM (inactive)

What value of GI50 has been reported for the following compound? "COCc1cc2c(cc1/C=C/[N+](=O)[O-])OCO2" 20.7 µM (inactive)

What value of GI50 has been reported for the following compound? "COc1ccc(OC)c(NC(=O)CCC/C(CC(=O)c2ccc(O)c(OC)c2)=N\NC(=O)C[N+](C)(C)C)c1" > 100 µM (inactive)

What value of GI50 has been reported for the following compound? "COc1cc(/C=C/C(=O)c2ccc(NS(=O)(=O)c3cc([N+](=O)[O-])ccc3C)cc2)cc(OC)c1OC" 2.18 µM (inactive)

###

Tested on: SK-OV-3
experimentSummary: NCI tumour cell line growth inhibition, 48 h
Calls of active or inactive are those of the source. Cut-off read from the data, not from the text of the source: active = GI50 up to about 1.1 µM and inactive = higher.
experimentalEndpoint: GI50

compound	GI50
CC(=O)Nc1cc([As](=O)(O)O)ccc1O	> 100 µM (inactive)
CC(C)(CN1CCCCC1)C(=O)CC(SCCS(=O)(=O)O)c1ccc(Br)cc1 (stereo not given)	2.93 µM (inactive)

What value of GI50 has been reported for the following compound? "Cc1cc2c3ccccc3n(C)c2c2c1C(=O)C=CC2=O" 21.1 µM (inactive)

What value of GI50 has been reported for the following compound? CC(=O)OC1CC2(C)C(=CC1C1SCCS1)CCC1C2CCC2(C)C(OC(C)=O)CCC12 (stereo not given) 27.9 µM (inactive)

What value of GI50 has been reported for the following compound? CCOC(=O)N1CC2(C(=O)OC)C=CC1C(C(=O)OC)C2 (stereo not given) > 100 µM (inactive)

###

System: IGROV-1
experimentSummary: NCI tumour cell line growth inhibition, 48 h
The source made the active and inactive calls. Rule as the data show it: active = GI50 up to about 1.1 µM and inactive = higher.
Hi there, use one of these labels in your reply, thanks! active, inactive

molecule	cat
S=C1OC2C3C4CC5C3C(O1)C1C5C4C21 (configuration not stated)	inactive
Cc1cc2c3ccccc3n(C)c2c2c1C(=O)C=CC2=O	inactive

What did this assay record as the result for "CN1CC[C@@]2(c3cccc(O)c3)CC(=O)/C(=C/c3ccc(Cl)c(Cl)c3)[C@H]1C2" ? inactive

What did this assay record as the result for "O=C(c1ccccc1)C(C(=O)c1ccccc1)C1(O)C(=O)c2ccccc2C1=O" ? inactive

What did this assay record as the result for COC1(C)CCC(OS(C)(=O)=O)CO1 (configuration not stated) ? inactive

What did this assay record as the result for C=C1C(O)C23CCC4C(C(=O)O)(C(=O)O)CC(OC5OC(CO)C(O)C(OC(=O)CCc6ccccc6)C5NC(=O)CC(C)C)CC4(C)C2CCC1(O)C3 (configuration not stated) ? inactive

###

Tested on: SW-620
experimentSummary: NCI tumour cell line growth inhibition, 48 h
Calls of active or inactive are those of the source. Rule as the data show it: active = GI50 up to about 1.1 µM and inactive = higher.
Hi there, use one of these labels in your reply, thanks! yes = active, no = inactive

Please review the following examples before continuing.
compound	cat
COc1cccc(-c2cc(O)c3cc(OC)ccc3n2)c1	yes
OCc1ccc2c(c1)CC1(C2)Cc2cc3c(cc2C1)CCC3	no
S=c1cc(-c2ccc3c(c2)OCO3)s[nH]1	no
CC(C)c1c(P(=O)(c2ccccc2)c2ccccc2)n(C)c2ccccc12	no

What did this assay record as the result for "COc1cc(Nc2cnc3cc(N)ccc3n2)cc(OC)c1OC" ? no

Data provenance: ChEMBL document CHEMBL1201862
